Source: the Kinase Knowledgebase extract (Sharma et al. 2016)

SYSTEM_UNDER_TEST: PIK3CD (Human) (UniProt O00329)
Sequence (O00329 whole entry, looked up): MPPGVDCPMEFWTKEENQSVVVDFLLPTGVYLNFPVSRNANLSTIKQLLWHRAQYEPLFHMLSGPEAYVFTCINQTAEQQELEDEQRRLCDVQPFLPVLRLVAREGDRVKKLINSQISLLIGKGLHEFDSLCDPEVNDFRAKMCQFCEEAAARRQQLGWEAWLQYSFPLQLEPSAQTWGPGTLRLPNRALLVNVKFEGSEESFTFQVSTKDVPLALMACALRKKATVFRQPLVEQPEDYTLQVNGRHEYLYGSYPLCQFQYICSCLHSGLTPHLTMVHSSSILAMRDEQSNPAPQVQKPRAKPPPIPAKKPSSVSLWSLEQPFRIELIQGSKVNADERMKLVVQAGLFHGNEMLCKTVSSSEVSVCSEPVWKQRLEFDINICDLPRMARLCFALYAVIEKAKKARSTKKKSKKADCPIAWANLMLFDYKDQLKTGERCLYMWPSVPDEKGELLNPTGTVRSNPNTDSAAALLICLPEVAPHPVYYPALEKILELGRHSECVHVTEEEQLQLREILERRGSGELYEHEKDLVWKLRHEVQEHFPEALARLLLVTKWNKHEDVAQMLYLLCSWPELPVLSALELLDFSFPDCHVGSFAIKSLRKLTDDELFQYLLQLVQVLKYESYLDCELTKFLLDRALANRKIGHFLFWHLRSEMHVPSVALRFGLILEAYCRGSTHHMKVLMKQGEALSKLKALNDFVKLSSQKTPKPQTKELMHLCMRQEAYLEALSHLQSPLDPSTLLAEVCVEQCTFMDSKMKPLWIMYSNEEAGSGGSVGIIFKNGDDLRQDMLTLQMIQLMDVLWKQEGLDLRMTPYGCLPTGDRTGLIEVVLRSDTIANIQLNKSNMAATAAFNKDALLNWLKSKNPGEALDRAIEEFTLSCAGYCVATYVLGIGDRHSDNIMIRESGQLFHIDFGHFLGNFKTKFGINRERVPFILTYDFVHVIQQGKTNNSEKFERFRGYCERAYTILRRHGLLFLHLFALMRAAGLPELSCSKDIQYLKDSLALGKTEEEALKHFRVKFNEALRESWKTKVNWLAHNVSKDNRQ
ASSAY_SUMMARY: Cell-Based Assay
PROTOCOL_CONDITIONS: raji
RESULT_TYPE: IC50

C[C@H](NC(=O)c1c(N)nn2cccnc12)c1cc2cccc(C#CCNC(=O)C3CCCCC3)c2c(=O)n1-c1ccccc1 ... < 100 nM
CC(C)Oc1cc(-c2cccc3nc([C@H](C)NC(=O)c4c(N)nn5cccnc45)n(-c4ccccc4)c(=O)c23)ccn1 ... < 100 nM
C[C@H](NC(=O)c1c(N)nn2cccnc12)c1c(C#N)c2cccc(F)c2c(=O)n1-c1ccccc1 ... < 100 nM
CC(C)Oc1cc(-c2cccc3cc([C@H](C)NC(=O)c4c(N)nn5cccnc45)n(-c4ccccc4)c(=O)c23)ccn1 ... < 100 nM
C[C@H](NC(=O)c1nc(-c2cccc(S(N)(=O)=O)c2)cnc1N)c1cc2cccc(Cl)c2c(=O)n1-c1ccccc1 ... 100 to 1000 nM

Batch lookup, IC50 per entry.
1. C[C@H](NC(=O)c1c(N)nn2cccnc12)c1cc2cccc(-c3ccn[nH]3)c2c(=O)n1-c1ccccc1
2. C[C@H](NC(=O)c1c(N)nn2cccnc12)c1cc2cccc(-c3ccccc3)c2c(=O)n1-c1ccccc1
3. C[C@H](NC(=O)c1nccnc1N)c1cc2cccc(Cl)c2c(=O)n1-c1ccccc1

Found:
1. 100 to 1000 nM
2. 100 to 1000 nM
3. < 100 nM

Batch lookup, IC50 per entry.
1. C[C@H](NC(=O)c1nc(-c2cccc(S(=O)(=O)NC(C)(C)C)c2)cnc1N)c1cc2cccc(Cl)c2c(=O)n1-c1ccccc1
2. C[C@H](NC(=O)c1cnn2cccnc12)c1cc2cccc(C#CCNC(=O)[C@@H]3CCC(=O)N3)c2c(=O)n1-c1ccccc1

Found:
< 100 nM
100 to 1000 nM
